Molecular target: HLA-A*02:01
Test: IEDB peptide-MHC binding, purified MHC/competitive/radioactivity; filed as Kd, often an IC50 or EC50 that approximates it; bounds were set here for any values at or beyond the usual limits of such assays
Conditions: source organism: Homo sapiens
Please go through the items and note down their pKd.
Give bare numbers, as −log10 of the molar value.

TLVSLLTFMI : 5.58
FLYGALLL : 6.84
VIHAFQYVI : 5.91
TLSKIFKL : 5.62
CLVGAPFASLC : 5.20
ALTVVWLL : 5.15
QMTFHLFIA : 5.78
FMIAATYNFAV : 8.00
LVLFACSAV : 6.34
WLLVFACSAV : 5.87

Please go through the list and note pKd for each sequence.
1. KVCGSNLLSI
2. RMYGVLPWI

## Result
[5.34, 7.54]

Please go through the list and note pKd for each sequence.
1. GLCFFGVAL
2. VLPWIAFPGKV
3. YALTVVWLL
4. FACSAVPVYI

## Result
[5.38, 5.89, 6.92, 6.11]

Please go through the list and note pKd for each sequence.
1. HLFIAAFV
2. SLLTFMIAA
3. QMTFHLFI
4. FLYGALLLA
5. LLVFACSAVPV
6. YALTVVWLLV

## Result
1. 5.96
2. 8.03
3. 5.73
4. 8.59
5. 6.00
6. 6.18

Please go through the list and note pKd for each sequence.
1. SLCADARMYGV
2. GLLECCARCLV
3. IAATYNFAV
4. LVSLLTFMI
5. LVFACSAVPV
6. SLSRFSWGA

## Result
[6.45, 7.02, 7.03, 5.72, 5.79, 6.04]

* * *

Biological target: HLA-A*02:01
Assay: IEDB peptide-MHC binding, purified MHC/competitive/radioactivity; filed as Kd, often an IC50 or EC50 that approximates it; bounds were set here for any values at or beyond the usual limits of such assays
Details: source organism: Homo sapiens
Measurement label: Kd

FLPRHRDTGI : ≥ 5 µM
FLPRHRDTGIL : ≥ 50 µM
ALTGTEKLI : ≥ 50 µM
VVHFFKNIV : ≥ 50 µM
ALTGTEKL : ≥ 50 µM
WLLVFACSA : ≥ 50 µM
WLGHPDKFV : ≥ 50 µM

Read the next record carefully.
## Task # get_value(readout= Kd, system= HLA-A*02:01) for `WLGHPDKFVGI`
## Result ≥ 25 µM

Cited source for all entries: the Immune Epitope Database (IEDB)
